assay: Inhibitory concentration against HIV-1 replication by interfering with virus reverse transcriptase
Can you tell me IC50 for the items I'm about to list?
Answers are plain numbers, in nM.

Worked examples, 3 compounds total:
CC(C)=CCN1CCn2c(=S)[nH]c3ccc(Cl)c(c32)C1
46
CC(C)=CCN1[C@H](C)Cn2c(=S)[nH]c3cccc(c32)[C@H]1C
42
CC(C)=CCN1Cc2c(Cl)ccc3[nH]c(=S)n(c23)C[C@@H]1C
5

Need IC50 for each of these compounds.
1. CC(C)=CCN1Cc2cc(Cl)cc3[nH]c(=O)n(c23)CC1C (stereo unspecified)
2. C=C(C)CN1Cc2cccc3[nH]c(=O)n(c23)C(CCC)C1 (stereo unspecified)
3. CC(C)=CCN1[C@H](C)Cn2c(=O)[nH]c3cc(Cl)cc(c32)[C@@H]1C
4. CC(C)=CCN1CC(C)n2c(=S)[nH]c3cccc(c32)C1C (stereo unspecified)
5. CC(C)=CCN1Cc2cccc3[nH]c(=S)n(c23)C(C)C1C (stereo unspecified)

result:
180
48100
230
25800
2220

Need IC50 for each of these compounds.
1. CC1Cn2c(=S)[nH]c3cc(Cl)cc(c32)CN1CC1CC1 (stereo unspecified)
2. CC(C)=CCN1CCn2c(=S)[nH]c3cccc(c32)C1C (stereo unspecified)
3. CC(C)=CCN1CCn2c(=S)[nH]c3cc(Cl)cc(c32)C1C (stereo unspecified)

result:
1. 34
2. 78
3. 23
